- Test system: Plasmodium berghei
- method: Screen against P. berghei liver stage (PbLuc), transformed with Luciferase, at 10uM
- Format: functional, HepG2
- condition details: tested at 10 uM
Among all 69,000 compounds or so, about 8,600 (12%) showed an effect of 50% or more. The full list was thinned out, with strong results kept by preference.
We label by threshold. Values of INHIBITION strictly beneath 10% are T. Values of 10% and up are F.

In [3]: df
Out[3]:
                                   compound  label_value
0                 CCOCCCNC(=O)c1nn(CC)cc1Br            T
1                  CCOCCCNC(=O)c1cn(CC)nc1C            F
2   CC(C)c1nn(C)c(N2CCOCC2)c1CNCCC(=O)N(C)C            F
3  COCC1CN(S(=O)(=O)N(C)C)Cc2ncn(CC3CC3)c21 (configuration not stated)            T
4      Cn1cc(C(=O)N2CCN(c3ncccn3)CC2)ccc1=O            F
5  COCCCN(Cc1ccc(F)cc1Cl)C1CCS(=O)(=O)C1 (configuration not stated)            F

Let us examine a further case.
Find out if reported INHIBITION for `Cc1ncc(-c2ccnc(N3CCCCCC3)n2)c(-c2cccnc2)n1` is less than 10%
F

====

- System: Plasmodium berghei
- method: Screen against P. berghei liver stage (PbLuc), transformed with Luciferase, at 10uM
- Format: functional, HepG2
- condition details: tested at 10 uM
Among all 69,000 compounds or so, about 8,600 (12%) showed an effect of 50% or more. Many of the other results were omitted from the sample, so strong results are more common in it than they were.
Lab note - cut at 20% for INHIBITION: met if strictly below, not met if not.

// known answers, use as guide
>>> print(df.to_string())
                                   compound  label_value
0  CC(Cn1cccn1)Nc1cnc2ccccc2n1 (stereo not drawn)      not met
1     CCc1nnc(CNc2ccc(CC(=O)N3CCSCC3)cc2)o1      not met
2  CC(=O)N1CCC(c2cccc(-c3cccc(C(=O)O)c3)n2)CC1      not met

Lab note: confirm whether the reported INHIBITION for this compound is below 20%, equality not counting. compound: `Cc1cnn(CCNc2nc(C)cc(N(C)C)n2)c1`
not met

Determine whether this compound shows INHIBITION lower than 20% (ties excluded): CCOCC1CN(C(=O)c2ccncc2)Cc2nn(C)cc21 (stereo not drawn)
met

Bench note: check whether COc1cccc(C2CCCN2CCCNS(C)(=O)=O)c1 (stereo not drawn) shows INHIBITION below 20%
met

Given `CN(C(=O)Cc1ccc(NC(=O)NC2CCC2)cc1)c1ccccc1` , is recorded INHIBITION strictly lower than 20%?
not met

A record lists `O=C(c1cscn1)N1CCC[C@]2(C[C@@H](OCC3CC3)CO2)C1` . Is its INHIBITION below 20%?
not met

hey, is INHIBITION for `Cc1ccc(S(=O)(=O)N2C[C@H]3C[C@H](NC(=O)c4cscn4)[C@H]3C2)cc1` lower than 20% or not?
not met

For this compound, is INHIBITION lower than 20%? `c1cncc(COCc2nnc3n2CCN(CC2CC2)C3)c1`
met

Given the entry `COc1ccccc1OCC(=O)NS(=O)(=O)c1ccc(C)s1` , would its reported INHIBITION be below 20%?
not met

Hello, is INHIBITION of the following compound strictly smaller than 20%? `OCCN1CCC2(CCc3cc(-c4ccoc4)ccc32)CC1`
not met
